# Tested on: NOMO1
# assayRemarks: cell viability relative to DMSO control; higher = less cytotoxic
# measurementParameters: HPLM + 10% dialyzed FBS; 48 h; 5.12 µM
Attribute: cell viability
Note: unit % is implicit; provide only the numeric part.

compound	outputUnit	cell viability
Cc1nc(C(=O)NCC(=O)O)c(O)c2ccc(Oc3ccccc3)cc12	%	118
COC1=CC2=C(C=C1CC3=C(F)C(=CC=C3)Cl)C(=O)\C(=C/N2[C@H](CO)C(C)C)C(O)=O	%	127
C[C@@H](Oc1ccc2[nH]nc(/C=C/c3cnn(CCO)c3)c2c1)c1c(Cl)cncc1Cl	%	70.9
Clc1ccc(C(Cn2ccnc2)OCc2ccc(Sc3ccccc3)cc2)c(Cl)c1 (stereo not drawn)	%	109

Now for another entry.
Fill in the blank: the reported cell viability of COc1ccc(CC2SC(=O)NC2=O)cc1C(=O)NCc1ccc(C(F)(F)F)cc1 (stereo not drawn) is ____.
83

====

# System: SEM cells
# assayRemarks: AUC of viability dose-response curve (% viability x log10 dose units); higher = less sensitive
# measurementParameters: RPMI 5 mM glucose + 10% FBS; 48 h
observable: AUC of viability dose-response curve
Kindly provide the number alone.

CNC(=O)c1cc(Oc2ccc(NC(=O)Nc3ccc(Cl)c(C(F)(F)F)c3)c(F)c2)ccn1 314
COc1cc2nc(N3CCN(C(=O)c4ccco4)CC3)nc(N)c2cc1OC 383
O=C(N[C@H]1CN2CCC1CC2)c1ccc(Cl)cc1 439

Recorded AUC of viability dose-response curve of `Cc1nc(N)sc1-c1ccnc(Nc2ccc(N3CCOCC3)cc2)n1` , please.
368

Give the measured AUC of viability dose-response curve of `CON(C)C(=O)N1\N=C(/S[C@]1(CCCN)C2=CC=CC=C2)C3=CC(=CC=C3F)F` .
103

====

# System: SEM cells
# assayRemarks: cell viability relative to DMSO control; higher = less cytotoxic
# measurementParameters: HPLM + 10% dialyzed FBS; 48 h; 0.00234 µM
cell viability values by entry
Return type: number; implicit unit %.

Check out these entries, answers already filled in.
compound	cell viability, %
COc1ccc(-c2cc3c(C)nc(N)nc3n([C@H]3CC[C@H](OCCO)CC3)c2=O)cn1	91.8
C=C1C(=O)O[C@@H]2[C@H]3O[C@]3(C)CC/C=C(\C)CC[C@@H]12	99.9
O=C(O)CCc1ccc(NCc2cccc(Oc3ccccc3)c2)cc1	93.7

Next compound, cell viability to be filled in.
Recorded cell viability for `Clc1ccc2c(N3CCN(CCCN4CCN(c5ccnc6cc(Cl)ccc56)CC4)CC3)ccnc2c1` with SEM cells, please?
111

====

# System: SEM cells
# assayRemarks: cell viability relative to DMSO control; higher = less cytotoxic
# measurementParameters: RPMI 5 mM glucose + 10% FBS; 48 h; 0.19 µM
Items are presented alongside their recorded cell viability.
Reply with the number and its unit after it.

Worked set:
compound	testSystem	observable	reported
CCN(CCO)CCCC(C)Nc1ccnc2cc(Cl)ccc12 (stereo not drawn)	SEM cells	cell viability	108%
O=C1N\N=C(\C[C@@H]2CCN(C2)C(=O)C3CC3)N1C4=CC=C(C=C4)C5=CC=C6OC=CC6=C5	SEM cells	cell viability	76.7%
CCCCc1oc2ccccc2c1C(=O)c1cc(I)c(OCCN(CC)CC)c(I)c1	SEM cells	cell viability	113%
COC(=O)Nc1nc2cc(Sc3ccccc3)ccc2[nH]1	SEM cells	cell viability	114%
Cc1ccc([S+](=O)([O-])NC(=O)NN2CC3CCCC3C2)cc1 (stereo not drawn)	SEM cells	cell viability	94.4%
COc1cc2nc(N3CCN(C(=O)c4ccco4)CC3)nc(N)c2cc1OC	SEM cells	cell viability	96.2%

Read the next record carefully.
So what does the record say about cell viability for `CC(=O)[C@H]1CC[C@H]2[C@@H]3C/C=C4/C[C@@H](O)CC[C@]4(C)[C@H]3CC[C@]12C` ?
116%
